target: Cytochrome P450 3A4 (Homo sapiens);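 also: CYP3A4 tested as one member of a cytochrome P450 panel screen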
Sequence (P08684 whole entry): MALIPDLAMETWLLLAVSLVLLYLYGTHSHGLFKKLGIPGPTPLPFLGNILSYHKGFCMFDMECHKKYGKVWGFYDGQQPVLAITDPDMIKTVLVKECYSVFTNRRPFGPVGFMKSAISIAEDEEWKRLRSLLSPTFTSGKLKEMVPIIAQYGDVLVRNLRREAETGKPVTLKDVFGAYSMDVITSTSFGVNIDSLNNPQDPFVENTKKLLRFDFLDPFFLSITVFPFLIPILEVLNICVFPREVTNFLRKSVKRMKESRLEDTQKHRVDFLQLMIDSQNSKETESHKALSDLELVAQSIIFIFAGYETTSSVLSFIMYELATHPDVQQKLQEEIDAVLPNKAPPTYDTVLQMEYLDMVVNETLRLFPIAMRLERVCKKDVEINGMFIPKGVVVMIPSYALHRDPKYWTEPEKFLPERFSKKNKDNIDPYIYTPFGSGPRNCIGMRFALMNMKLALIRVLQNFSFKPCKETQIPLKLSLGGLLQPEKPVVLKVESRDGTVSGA
Measured Parameter: AC50

Here are 5 compounds together with their reported answers.
Look up AC50: Cc1ccc(-n2c(O)cnc2Nc2nc(C)cc(C)n2)cc1
31.6 µM (inconclusive)

Now give it for CCOC(=O)Cc1csc(NC(=S)NC(=O)c2ccc(F)cc2)n1 too.
17.8 µM (inconclusive)

# iterate: CN(C)c1ccc(-c2nc(N3CCNCC3)c3ccccc3n2)cc1
31.6 µM (inconclusive)

Here is the next compound: COc1cc(C)ccc1OCCCOc1ccccc1Cl
17.8 µM (inconclusive)

Repeat for the following compound: COc1ccc2[nH]cc(CCNc3ncnc4ccc(-c5ccccc5OC)cc34)c2c1
0.794 µM (inconclusive)

***
Would you mind telling me what AC50 value was observed for CCOc1ccc(C(=O)Nc2cccc(-c3cc4ccccc4oc3=O)c2)cc1[N+](=O)[O-] ?
10 µM (inconclusive)

# repeat for Cn1c(=O)c2nc(CCCc3ccc([N+](=O)[O-])cc3)[nH]c2n(C)c1=O
3.98 µM (inconclusive)

Likewise for C/C(=N\OC(=O)NC(C)C)c1sc(-c2ccc(Cl)cc2)nc1C ?
31.6 µM (inconclusive)

Moving on to CC(C)c1ccc(NC(=O)C(c2ccccc2)N2CCN(C=O)CC2)cc1 (stereo not given)
11.2 µM (inconclusive)

Next up: COc1cccc(Nc2ncc3ncc(=O)n(C)c3n2)c1
12.6 µM (inconclusive)

Try this compound next: Cc1cc(C)cc(N(C(=O)Cc2cccs2)C(C(=O)NC2CCCCC2)c2ccccn2)c1 (stereo not given)
0.891 µM (inconclusive)

###

System: Cytochrome P450 2C9 (Homo sapiens) | Read-out: AC50
Sequence (P11712 whole entry): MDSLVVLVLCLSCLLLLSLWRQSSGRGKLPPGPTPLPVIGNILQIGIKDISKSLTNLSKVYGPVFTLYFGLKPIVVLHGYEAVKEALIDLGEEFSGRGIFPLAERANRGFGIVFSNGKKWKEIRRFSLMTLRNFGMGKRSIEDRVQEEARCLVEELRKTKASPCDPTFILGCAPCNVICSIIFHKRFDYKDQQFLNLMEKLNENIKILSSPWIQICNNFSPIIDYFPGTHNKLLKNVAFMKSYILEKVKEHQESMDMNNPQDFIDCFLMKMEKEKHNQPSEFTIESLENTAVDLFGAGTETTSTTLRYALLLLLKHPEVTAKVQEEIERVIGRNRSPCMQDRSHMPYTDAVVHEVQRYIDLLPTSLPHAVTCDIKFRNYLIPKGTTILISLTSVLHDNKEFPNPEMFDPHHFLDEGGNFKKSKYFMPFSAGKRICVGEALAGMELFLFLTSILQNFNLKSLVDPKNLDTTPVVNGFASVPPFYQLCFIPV

Below, 4 compounds whose answers are already recorded.
What value of measured AC50 is listed for O=c1cc(O)cc(/C=C\c2ccc(O)c(O)c2)o1 ?
25.1 µM (inconclusive)

What do you get for O=C(Cn1cnc([N+](=O)[O-])n1)N/N=C/c1ccccc1O ?
10 µM (inconclusive)

Also, COc1ccc(-c2cc(-c3cc(F)ccc3O)[nH]n2)cc1OC please.
39.8 µM (inconclusive)

Subsequent entry: CCOC(=O)Cn1c(=O)oc2cc(S(=O)(=O)NCCc3ccc(OCC)c(OCC)c3)ccc21
0.00562 µM (inconclusive)

---
Which measured AC50 value corresponds to CCc1nn(C)c(-c2nnc(S)n2N)c1Cl ?
28.2 µM (inconclusive)

Please answer likewise for FC(F)(F)c1cccc(NC(S)=Nc2ccc(Cl)cc2Cl)c1
31.6 µM (inconclusive)

Same for O=C(NCc1ccco1)c1cc(C(=O)C2CC2)c[nH]1
39.8 µM (inconclusive)

// repeat for O=C(Nc1ccccc1)c1cc(-n2cnnc2)ccc1Cl and report
25.1 µM (inconclusive)

Would you kindly repeat that for CCOC(=O)N1CCN(CC(=O)c2ccc3c(c2)CCN3)CC1 ?
17.8 µM (inconclusive)

Same question for CC(C)c1ccc(NC(=O)C(c2ccccc2)N2CCN(C=O)CC2)cc1 (centres undefined) please.
14.1 µM (inconclusive)

Request: COc1cc2c(cc1OC)C(C(=O)Nc1ccc3c(c1)OCCO3)C(c1cccnc1)N(C)C2=O (centres undefined)
11.2 µM (inconclusive)

Same thing, different compound: COc1cc(C)ccc1OCCCOc1ccccc1Cl
12.6 µM (inconclusive)

###

target: Fatty acid synthase (Homo sapiens, UniProt P49327); assay: FAS thioesterase domain inhibitors, dose response, biochemical, kinetic fluorescence intensity (AID 624326); type: functional;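 also: rate of fluorescence rise from hydrolysis of a fluorogenic O-methyl fluorescein ester substrate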
Sequence (P49327 whole entry, the tested form may be a part): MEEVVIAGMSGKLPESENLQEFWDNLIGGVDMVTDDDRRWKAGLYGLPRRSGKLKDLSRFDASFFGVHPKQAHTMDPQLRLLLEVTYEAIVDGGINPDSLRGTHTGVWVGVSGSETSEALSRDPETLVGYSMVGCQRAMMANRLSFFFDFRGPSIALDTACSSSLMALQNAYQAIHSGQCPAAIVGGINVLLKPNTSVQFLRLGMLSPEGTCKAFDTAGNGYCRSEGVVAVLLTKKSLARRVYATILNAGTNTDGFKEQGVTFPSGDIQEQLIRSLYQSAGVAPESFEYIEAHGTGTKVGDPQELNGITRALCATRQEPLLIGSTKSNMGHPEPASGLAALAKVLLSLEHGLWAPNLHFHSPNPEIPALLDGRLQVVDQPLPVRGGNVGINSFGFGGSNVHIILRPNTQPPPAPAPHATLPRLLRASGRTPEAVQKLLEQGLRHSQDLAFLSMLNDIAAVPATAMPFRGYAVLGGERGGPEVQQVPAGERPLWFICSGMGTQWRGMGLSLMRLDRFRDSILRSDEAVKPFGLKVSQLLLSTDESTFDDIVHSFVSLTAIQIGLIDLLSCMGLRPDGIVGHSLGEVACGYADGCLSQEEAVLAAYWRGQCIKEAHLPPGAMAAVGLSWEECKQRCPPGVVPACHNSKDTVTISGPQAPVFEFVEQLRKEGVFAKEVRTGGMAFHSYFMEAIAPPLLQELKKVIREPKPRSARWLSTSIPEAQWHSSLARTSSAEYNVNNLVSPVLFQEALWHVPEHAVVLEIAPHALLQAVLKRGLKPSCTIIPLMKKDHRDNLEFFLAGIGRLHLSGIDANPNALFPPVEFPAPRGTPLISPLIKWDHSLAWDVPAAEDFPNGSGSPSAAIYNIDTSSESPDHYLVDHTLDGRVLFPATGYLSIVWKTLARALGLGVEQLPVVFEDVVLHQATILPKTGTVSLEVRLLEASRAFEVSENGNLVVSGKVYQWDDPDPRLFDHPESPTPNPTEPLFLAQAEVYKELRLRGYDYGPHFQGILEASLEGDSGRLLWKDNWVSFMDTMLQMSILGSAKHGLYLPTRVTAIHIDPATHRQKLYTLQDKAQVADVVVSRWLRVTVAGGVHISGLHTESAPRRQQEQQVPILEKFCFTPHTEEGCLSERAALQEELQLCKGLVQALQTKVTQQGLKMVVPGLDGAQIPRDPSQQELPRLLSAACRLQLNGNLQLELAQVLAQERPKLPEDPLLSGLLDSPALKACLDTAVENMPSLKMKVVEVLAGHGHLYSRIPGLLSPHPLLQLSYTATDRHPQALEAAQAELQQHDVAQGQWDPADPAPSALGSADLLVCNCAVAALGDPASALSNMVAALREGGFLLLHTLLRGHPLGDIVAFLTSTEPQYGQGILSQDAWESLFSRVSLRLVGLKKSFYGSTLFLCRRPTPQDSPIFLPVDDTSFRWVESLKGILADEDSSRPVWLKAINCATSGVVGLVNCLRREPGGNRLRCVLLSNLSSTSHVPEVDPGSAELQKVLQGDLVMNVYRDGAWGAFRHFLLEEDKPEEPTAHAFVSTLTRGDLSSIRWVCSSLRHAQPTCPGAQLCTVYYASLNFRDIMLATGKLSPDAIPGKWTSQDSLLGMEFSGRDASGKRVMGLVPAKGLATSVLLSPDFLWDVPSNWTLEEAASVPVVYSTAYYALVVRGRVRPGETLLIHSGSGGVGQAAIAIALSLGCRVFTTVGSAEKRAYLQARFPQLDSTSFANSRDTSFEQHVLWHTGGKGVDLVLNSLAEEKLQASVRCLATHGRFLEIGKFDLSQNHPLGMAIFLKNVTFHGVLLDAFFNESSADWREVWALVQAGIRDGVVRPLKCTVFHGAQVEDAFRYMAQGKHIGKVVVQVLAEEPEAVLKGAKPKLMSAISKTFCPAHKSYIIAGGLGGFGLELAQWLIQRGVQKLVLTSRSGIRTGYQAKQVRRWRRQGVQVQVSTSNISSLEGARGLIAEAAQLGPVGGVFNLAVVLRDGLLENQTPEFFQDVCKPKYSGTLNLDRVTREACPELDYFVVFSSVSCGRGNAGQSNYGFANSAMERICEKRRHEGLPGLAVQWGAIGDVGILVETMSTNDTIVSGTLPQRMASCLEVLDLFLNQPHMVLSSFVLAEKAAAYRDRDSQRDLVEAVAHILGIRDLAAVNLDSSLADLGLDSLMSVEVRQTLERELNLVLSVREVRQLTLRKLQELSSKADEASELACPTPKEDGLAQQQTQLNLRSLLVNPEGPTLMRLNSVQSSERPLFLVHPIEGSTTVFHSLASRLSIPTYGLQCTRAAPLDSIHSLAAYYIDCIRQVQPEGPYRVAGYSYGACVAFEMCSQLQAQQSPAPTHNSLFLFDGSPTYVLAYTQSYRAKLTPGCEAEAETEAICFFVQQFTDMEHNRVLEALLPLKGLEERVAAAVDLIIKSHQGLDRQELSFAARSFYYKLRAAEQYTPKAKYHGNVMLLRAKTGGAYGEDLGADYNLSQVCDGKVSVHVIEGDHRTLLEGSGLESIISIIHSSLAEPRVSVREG
Activity calls are given as the source filed them.
Pick one: YES (active), NO (inactive)

Worked cases, answers included:
Kindly provide the recorded test outcome for the following compound: O=[N+]([O-])c1ccc(C(O)C(CO)N=C(S)Nc2ccccc2)cc1 (stereo not given)
NO

Another compound to look at: Cc1ccc(O)c(NC(=O)c2cc([N+](=O)[O-])ccc2Cl)c1
YES

Now give it for Cc1cc(C)c(C(=O)COC(=O)c2cc([N+](=O)[O-])ccc2NCCO)cc1C too.
YES

Next: O=[N+]([O-])c1c(NCCCO)cc(Sc2nc3ccccc3s2)c2nonc12
YES

Please turn your attention to the following entry.
Record lookup: outcome of this test for Cc1ccc([N+](=O)[O-])cc1NC(=O)CCc1ccccc1 ?
YES
